Overview of recorded IC50 for various molecules
Tested on: DU-145
assay.overview: Antiproliferative activity against human prostate cancer DU-145 cell line by sulforhodamine B assay
Type: functional, cell-based

Consider the following illustrative entries.
{"columns": ["molecule", "outcome.measure", "result"],
 "data": [
  ["CCCCCCCCCCCCCCCCCCNC(=O)[C@@H]1CSC(c2ccc(OC)cc2)N1 (stereo not given in full)", "IC50", "8.7 µM"],
  ["CCCCCCCCCCCCCCCCCCNC(=O)[C@@H]1CSC(c2ccc(O)cc2)N1 (stereo not given in full)", "IC50", "3.1 µM"],
  ["CCCCCCCCN(CCCCCCCC)C(=O)[C@@H]1CSC(c2cc(OC)c(OC)c(OC)c2)N1 (stereo not given in full)", "IC50", "> 20 µM"]
]}

# IC50 lookup, item CCCCCCCCCCCCCCCCCCNC(=O)[C@@H]1CSC(c2ccc(OCC)cc2)N1 (stereo not given in full)
> 20 µM

And then CCCCCCCCCCCCCCCCCCNC(=O)[C@@H]1CSC(c2ccc(N(C)C)cc2)N1 (stereo not given in full) , what is it?
5.3 µM

* * *

# IC50 values compiled below
Tested on: DU-145
assay.overview: Antiproliferative activity against human prostate cancer DU-145 cell line by sulforhodamine B assay
Assay type: functional, cell-based
Give just the numeric value; µM need not be written.

Reference set, count: 2
{"columns": ["molecule", "measurement.target", "IC50 [µM]"],
 "data": [
  ["CCCCCCCCCCCCCCCCCCNC(=O)[C@@H]1CSC(c2cccc(O)c2)N1 (stereo not given in full)", "DU-145", 5.7],
  ["CCCCCCCCCCCCCCCCCCNC(=O)[C@@H]1CSC(c2c(OC)cc(OC)cc2OC)N1 (stereo not given in full)", "DU-145", 7.3]
]}

In the following, a different molecule is considered.
Field request: IC50 | item: CCCCCCCCCCCCCCCCCCNC(=O)[C@@H]1CSC(c2cc(OC)c(OC)c(OC)c2)N1 (stereo not given in full)
3.9

* * *

assay.overview: Antiproliferative activity against human prostate cancer PPC-1 cell line by sulforhodamine B assay
Type: functional, cell-based
Recorded pIC50 by entry
Note on units: pIC50 is unitless, being -log10 of a concentration expressed in mol/L.

{"columns": ["compound", "pIC50"],
 "data": [
  ["CCCCCCCCCCCCCCCCCCNC(=O)[C@@H]1CSC(c2ccc(OCC)cc2)N1 (stereo not given in full)", 5.36],
  ["CCCCCCCCCCCCCCCCCCNC(=O)[C@@H]1CSC(c2cccc(O)c2)N1 (stereo not given in full)", 5.92],
  ["CCCCCCCCCCCCCCCCCCNC(=O)[C@@H]1CSC(c2c(OC)cc(OC)cc2OC)N1 (stereo not given in full)", 6.08],
  ["CCCCCCCCN(CCCCCCCC)C(=O)[C@@H]1CSC(c2cc(OC)c(OC)c(OC)c2)N1 (stereo not given in full)", 4.85]
]}

Which pIC50 reading was recorded for the compound CCCCCCCCCCCCCCCCCCNC(=O)[C@H]1NC(c2cc(OC)c(OC)c(OC)c2)SC1(C)C (stereo not given in full) ?
4.73

* * *

System: LNCaP
assay.overview: Antiproliferative activity against human prostate cancer LNCaP cell line by sulforhodamine B assay
Assay type: functional, cell-based
outcome.measure: log10 IC50 (log10 of the value in µM)
Plainly stated, the numbers are log10 of IC50 given in µM.

# query: log10 IC50 | item CCCCCCCCN(CCCCCCCC)C(=O)[C@@H]1CSC(c2cc(OC)c(OC)c(OC)c2)N1 (stereo not given in full) | system: LNCaP
0.94

Same thing, different compound: CCCCCCCCCCCCCCCCCCNC(=O)[C@@H]1CSC(c2cc(OC)c(OC)c(OC)c2)N1 (stereo not given in full)
-0.09

Check CCCCCCCCCCCCCCCCCCNC(=O)[C@@H]1CSC(c2ccc(O)cc2)N1 (stereo not given in full) too.
0.20

Try the compound CCCCCCCCCCCCCCCCCCNC(=O)[C@@H]1CSC(c2ccc(N(C)C)cc2)N1 (stereo not given in full)
0.20

Would you mind doing CCCCCCCCCCCCCCCCCCNC(=O)[C@@H]1CSC(c2cccc(O)c2)N1 (stereo not given in full) as well?
0.23

Here is the next compound: CCCCCCCCCCCCCCCCCCNC(=O)[C@@H]1CSC(c2ccc(OC)cc2)N1 (stereo not given in full)
0.32

// query: CCCCCCCCCCCCCCCCCCNC(=O)[C@@H]1CSC(c2ccc(OCC)cc2)N1 (stereo not given in full)
0.79

Another compound to look at: CCCCCCCCCCCCCCCCCCNC(=O)[C@@H]1CSC(c2c(OC)cc(OC)cc2OC)N1 (stereo not given in full)
0.38
